Values from patent US20100260765A1

- subject-of-test: T1, mouse KDR (Flk-1)/Fc (Cat. #443-KD/CF, R&D Systems) (mouse, UniProt P35918 20-762)
- T1 construct: Bought reagent; also called mouse VEGFR2; KDR mouse ortholog; Fc part of the bought chimera not given
- experiment-notes: ELISA, plate-coated Flk-1/Fc 500 ng/mL, hybridoma supernatant 1:5
Note to self: use t only for OD (450 nm) readings below 0.09 OD450; a reading exactly at 0.09 OD450 still gets f.

[ask] Consider the binder anti-KDR monoclonal antibody 29F7 (antibody, V domains shown, Fully human mAb from XenoMouse (IgG2 or IgG4 strain); hybridoma supernatant) VH: QVQLVQSGAEVKKPGASVKVSCKASGYTFTSYDINWVRQATGQGLEWMGWMNPNSGKTGYAQKFQGRVTMTRSTSISTAYMELSSLRSEDTAVYYCARGGYSNLGWFDPWGQGTLVTVSS VL: DIQMTQSPSSVFASVGDRVTITCRASQGISTWLAWYQQKPGKAPKFLIYAASSLQSGVPSRFSGSGSGTDFTLTISSLQPDDFATYYCQQANNFPFTFGPGTKVDIK . Is its OD (450 nm) strictly less than 0.09 OD450?
[reply] f

[ask] Consider the binder anti-KDR monoclonal antibody 32F4 (antibody, V domains shown, Fully human mAb from XenoMouse (IgG2 or IgG4 strain); hybridoma supernatant) VH: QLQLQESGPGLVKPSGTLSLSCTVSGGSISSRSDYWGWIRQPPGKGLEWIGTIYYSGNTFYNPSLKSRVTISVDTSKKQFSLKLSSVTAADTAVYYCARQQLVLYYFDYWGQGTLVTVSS VL: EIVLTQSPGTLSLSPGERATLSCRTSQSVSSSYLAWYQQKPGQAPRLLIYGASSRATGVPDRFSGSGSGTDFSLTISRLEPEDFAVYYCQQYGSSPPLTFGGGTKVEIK . Is its OD (450 nm) strictly less than 0.09 OD450?
[reply] f

[ask] Consider the binder anti-KDR monoclonal antibody 33E1 (antibody, V domains shown, Fully human mAb from XenoMouse (IgG2 or IgG4 strain); hybridoma supernatant) VH: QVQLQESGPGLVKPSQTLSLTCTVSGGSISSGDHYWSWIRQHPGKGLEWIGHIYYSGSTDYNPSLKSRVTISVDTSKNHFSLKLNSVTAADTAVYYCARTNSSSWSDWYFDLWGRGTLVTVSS VL: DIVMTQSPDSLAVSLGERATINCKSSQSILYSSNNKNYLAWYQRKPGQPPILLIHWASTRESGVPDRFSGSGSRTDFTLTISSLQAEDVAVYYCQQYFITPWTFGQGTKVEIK . Is its OD (450 nm) strictly less than 0.09 OD450?
[reply] f

[ask] Consider the binder anti-KDR monoclonal antibody 22B8 (antibody, V domains shown, Fully human mAb from XenoMouse (IgG2 or IgG4 strain); hybridoma supernatant) VH: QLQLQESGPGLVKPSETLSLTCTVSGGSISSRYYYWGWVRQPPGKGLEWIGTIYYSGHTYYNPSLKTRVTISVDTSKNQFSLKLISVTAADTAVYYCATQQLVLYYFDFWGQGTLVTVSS VL: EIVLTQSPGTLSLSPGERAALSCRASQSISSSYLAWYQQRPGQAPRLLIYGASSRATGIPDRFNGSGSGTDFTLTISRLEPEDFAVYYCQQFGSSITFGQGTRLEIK . Is its OD (450 nm) strictly less than 0.09 OD450?
[reply] t
